biological target: recombinant human DHODH (Homo sapiens); construct: DHODH, 31-395aa, Human, His tag, E. coli, ATGP1615; His tag; assay: DHODH enzyme reaction inhibition test (DCIP-coupled assay); settings: recombinant human DHODH 0.175 μg/mL, DCIP absorbance 600 nm, 50 minutes, pH 8.0; read-out: Enzyme reaction inhibitory effect (IC50)
# IC50 per entry

Query CC(O)c1nc(C2CC2)cnc1Nc1cccc(C2=CCOCC2)c1OCC(F)(F)F (stereo not shown) yields IC50 of ≥ 100 nM

// Cc1ccc(-c2cccc(Nc3ncc(C4CC4)nc3C(=O)NS(C)(=O)=O)c2OCC(F)(F)F)c(C)n1 : IC50 value = 10 to 100 nM

====

biological target: recombinant human DHODH (Homo sapiens, UniProt Q02127); construct: DHODH, 31-395aa, Human, His tag, E. coli, ATGP1615; His tag; test: DHODH enzyme reaction inhibition test (DCIP-coupled assay); settings: recombinant human DHODH 0.175 μg/mL, DCIP absorbance 600 nm, 50 minutes, pH 8.0; read-out: Enzyme reaction inhibitory effect (IC50)
Sequence (Q02127 31-395): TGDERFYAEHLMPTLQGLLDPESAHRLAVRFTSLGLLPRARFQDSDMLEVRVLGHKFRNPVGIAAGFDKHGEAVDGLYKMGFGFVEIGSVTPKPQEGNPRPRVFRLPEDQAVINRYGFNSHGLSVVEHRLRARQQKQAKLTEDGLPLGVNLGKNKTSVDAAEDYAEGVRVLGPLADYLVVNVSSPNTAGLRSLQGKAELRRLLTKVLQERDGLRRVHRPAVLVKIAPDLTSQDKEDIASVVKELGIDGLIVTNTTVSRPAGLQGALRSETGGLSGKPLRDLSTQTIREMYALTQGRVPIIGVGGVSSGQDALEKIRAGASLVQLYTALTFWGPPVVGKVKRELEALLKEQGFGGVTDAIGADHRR
pIC50: −log10 of the molar value.
Readout kind: pIC50

Reference set (5 entries):
smiles_structure=CCOc1c(Nc2ncc(C3CC3)cc2C(=O)NS(C)(=O)=O)ccc(F)c1C1=CCOCC1 readout_kind=pIC50 measured_value="> 8.00"
smiles_structure=NS(=O)(=O)NC(=O)c1nc(C2CC2)cnc1Nc1cc(F)cc(C2CCOCC2)c1OC(F)F readout_kind=pIC50 measured_value="> 8.00"
smiles_structure=CCc1c(Nc2ncc(C3CC3)cc2C(=O)NS(C)(=O)=O)cccc1C1CCOCC1 readout_kind=pIC50 measured_value="> 8.00"
smiles_structure=CCc1c(Nc2ncc(C3CC3)nc2C(=O)NS(C)(=O)=O)cccc1C1CCOCC1 readout_kind=pIC50 measured_value="7.00 to 8.00"
smiles_structure=CS(=O)(=O)NC(=O)c1cc(C2CC2)cnc1Nc1cccc(C2=CCOCC2)c1OCC(F)(F)F readout_kind=pIC50 measured_value="> 8.00"

Considering N#CNC(=O)c1nc(C2CC2)cnc1Nc1cc(F)cc(C2=CCOCC2)c1OCC(F)(F)F , its pIC50 with recombinant human DHODH (Homo sapiens, UniProt Q02127) was recorded as > 8.00

The reported recombinant human DHODH (Homo sapiens, UniProt Q02127) pIC50 of CCOc1c(Nc2ncc(C3CC3)nc2C(=O)NS(C)(=O)=O)cccc1C1=CCOCC1 is > 8.00

C[C@H](Oc1c(Nc2ccc(C3CC3)cc2C(=O)O)cncc1C1=CCOCC1)C(F)(F)F on recombinant human DHODH (Homo sapiens, UniProt Q02127) gives pIC50 = > 8.00

The observed pIC50 for CNS(=O)(=O)NC(=O)c1nc(C2CC2)cnc1Nc1cccc(C2=CCOCC2)c1OCC(F)(F)F when tested with recombinant human DHODH (Homo sapiens, UniProt Q02127) stands at 7.00 to 8.00

====

Overview of recorded IC50 for various molecules
target: recombinant human DHODH (Homo sapiens, UniProt Q02127); construct: DHODH, 31-395aa, Human, His tag, E. coli, ATGP1615; His tag; test: DHODH enzyme reaction inhibition test (DCIP-coupled assay); conditions: recombinant human DHODH 0.175 μg/mL, DCIP absorbance 600 nm, 50 minutes, pH 8.0; read-out: Enzyme reaction inhibitory effect (IC50)

smiles_structure=O=c1[nH]c(-c2nc(C3CC3)cnc2Nc2cccc(C3=CCOCC3)c2OCC(F)(F)F)no1 measured_value="< 10 nM"
smiles_structure=CS(=O)(=O)NC(=O)c1cc(C2CC2)cnc1Nc1cccc(-c2ccc(C#N)cc2)c1OCC(F)(F)F measured_value="< 10 nM"
smiles_structure=O=C(NS(=O)(=O)C1CC1)c1nc(C2CC2)cnc1Nc1cccc(C2=CCOCC2)c1OCC(F)(F)F measured_value="10 to 100 nM"

Short answer for CS(=O)(=O)NC(=O)c1nc(C2CC2)cnc1Nc1cccc(-c2ccc(F)cc2)c1OCC(F)(F)F : IC50 was < 10 nM

Lookup result for N#CNC(=O)c1nc(C2CC2)cnc1Nc1cccc(C2=CCOCC2)c1OCC(F)(F)F ; measured IC50: < 10 nM

IC50 measured on O=c1[nH]nc(-c2nc(C3CC3)cnc2Nc2cccc(C3=CCOCC3)c2OCC(F)(F)F)o1 = 10 to 100 nM

The molecule listed as CC(=O)c1nc(C2CC2)cnc1Nc1cccc(C2=CCOCC2)c1OCC(F)(F)F has a reported IC50 of 10 to 100 nM

In plain terms, NS(=O)(=O)NC(=O)c1cc(C2CC2)cnc1Nc1cccc(C2CCOCC2)c1OCC(F)(F)F has a documented IC50 of < 10 nM
